Origin of values: patent US11028072B2

Measured On: wild type (WT) pfDHFR (Plasmodium falciparum, UniProt P13922, N108S/R59C)
Sequence (P13922 whole entry R59C/N108S): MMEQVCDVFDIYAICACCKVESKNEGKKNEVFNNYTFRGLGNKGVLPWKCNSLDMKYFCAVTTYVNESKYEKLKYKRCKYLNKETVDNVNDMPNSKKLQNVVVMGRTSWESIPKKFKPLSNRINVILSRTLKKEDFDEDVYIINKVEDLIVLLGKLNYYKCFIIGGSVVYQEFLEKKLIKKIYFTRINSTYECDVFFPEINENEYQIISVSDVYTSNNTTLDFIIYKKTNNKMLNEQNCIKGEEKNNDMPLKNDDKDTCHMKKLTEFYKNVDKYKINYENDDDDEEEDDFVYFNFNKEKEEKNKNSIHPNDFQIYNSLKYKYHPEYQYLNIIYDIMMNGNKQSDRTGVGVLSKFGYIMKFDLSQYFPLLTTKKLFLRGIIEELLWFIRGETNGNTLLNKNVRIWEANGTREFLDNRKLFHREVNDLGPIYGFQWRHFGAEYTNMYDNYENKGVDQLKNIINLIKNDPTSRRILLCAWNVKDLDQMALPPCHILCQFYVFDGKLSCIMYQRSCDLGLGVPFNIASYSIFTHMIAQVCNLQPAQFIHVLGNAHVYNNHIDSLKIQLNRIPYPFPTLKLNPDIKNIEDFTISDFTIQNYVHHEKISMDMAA
Assay Name: Inhibition of wild type pfDHFR (Ki)
Description: The synthesized 2,4-diamino-6-ethylpyrimdine derivatives as the hydrochloride salts were tested for the activities against Plasmodium falciparum (P. falciparum) according to the standard methods. These include the inhibition of dihydrofolate reductase (DHFR) enzymes of P. falciparum including, wild type (WT) and quadruple mutants (N51IC59RS108NI164L) (QM). The inhibition was expressed as inhibition constants (Ki) in nano molar (nM).
pKi: −log10 of the molar value.
Short version: pKi at least 9 is Yes, less is No.

Please review the following examples before continuing.
{"columns": ["Molecule", "Category"],
 "data": [
  ["CCc1nc(N)nc(N)c1OCc1cn(Cc2ccc(C(=O)O)cc2)nn1 [Compound 29]", "No"],
  ["CCc1nc(N)nc(N)c1OCCc1cn(-c2cccc(C(=O)O)c2)nn1 [Compound 20]", "Yes"],
  ["CCc1nc(N)nc(N)c1OCc1cn(-c2cccc(C(=O)O)c2)nn1.Cl [Compound 16, Hydrochloride]", "Yes"],
  ["CCc1nc(N)nc(N)c1OCc1cn(-c2cccc([N+](=O)[O-])c2)nn1 [Compound 14]", "No"],
  ["CCc1nc(N)nc(N)c1-c1cn(-c2cccc(C(=O)O)c2)nn1.Cl [Compound 2, Hydrochloride]", "No"]
]}

# check: pKi of CCc1nc(N)nc(N)c1OCCCc1cc(-c2cccc(C(=O)OC)c2)no1 [Compound 48] is greater than or equal to 9
Yes

Check this molecule for pKi at or above 9: CCc1nc(N)nc(N)c1OCCCc1cc(-c2ccc(Cl)cc2)no1 [Compound 45]
No

Quick check, pKi >= 9? CCc1nc(N)nc(N)c1OCc1coc(-c2cccc(C)c2)n1 [Compound 51]
Yes

State whether the measured pKi reaches 9, counting equality as reaching it, for CCc1nc(N)nc(N)c1-c1cn(-c2ccccc2)nn1 [Compound 1]
No

Dear colleague, could you confirm whether CCc1nc(N)nc(N)c1OCCc1cn(-c2ccc(C(=O)OC)cc2)nn1 [Compound 21] has pKi at or above 9?
Yes

* * *

Measured On: UniProt:P00374
Sequence (P00374 1-187): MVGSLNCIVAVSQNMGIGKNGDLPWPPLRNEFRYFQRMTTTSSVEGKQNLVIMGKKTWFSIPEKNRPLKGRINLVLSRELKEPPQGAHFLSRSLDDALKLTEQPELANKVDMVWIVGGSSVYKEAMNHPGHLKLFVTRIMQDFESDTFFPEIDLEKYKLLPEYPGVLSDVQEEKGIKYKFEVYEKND
Measurement Type: pKi
Quick note: pKi means taking -log10 of the concentration in moles per liter.

Observe how each entry below is paired with its result.
{"columns": ["Molecule", "pKi"],
 "data": [
  ["CCc1nc(N)nc(N)c1OCCCc1cn(-c2ccc(C(=O)OC)cc2)nn1 [Compound 24]", 7.72],
  ["CCc1nc(N)nc(N)c1OCCCc1cc(-c2ccc(Cl)cc2)no1 [Compound 45]", 7.43],
  ["CCc1nc(N)nc(N)c1OCc1csc(-c2cccc(OCC(=O)OCc3ccccc3)c2)n1 [Compound 63]", 6.93],
  ["CCc1nc(N)nc(N)c1OCCc1cn(-c2ccc(C(=O)OC)cc2)nn1 [Compound 21]", 5.98],
  ["CCc1nc(N)nc(N)c1OCc1csc(-c2cccc(C)c2)n1 [Compound 61]", 6.88]
]}

Consider the additional molecule presented here.
Param readout = pKi; param system = UniProt:P00374; param query = CCc1nc(N)nc(N)c1OCc1csc(-c2ccc(C(=O)OC)cc2)n1 [Compound 74] ; response: value
6.35
